System: LOX IMVI melanoma
procedureSummary: NCI-60 one-dose screen, 48 h (100 = growth as untreated, 0 = no growth, -100 = all killed)
setupConditions: 10 µM unless noted
This is part of a sample that, as a whole, favours compounds with a hit. Of some 83,000 tested, about 20% had one in any assay.
Measured growth, listed per entry.
Dear colleague, please return just the value in %, with no unit written.

Example cases with answers are listed next.
compound	measuredOn	growth / %
CC(C)NC(=O)c1cc(-c2ccc(NC(=O)Nc3ccc(F)cc3)cc2)nc2cccnc12	LOX IMVI melanoma	98
O=C(CSc1nc2ccccc2c(=O)n1-c1ccccc1)N/N=C/c1ccc(Oc2ccc(Cl)cc2)cc1	LOX IMVI melanoma	14
Cn1c2nc3ccccc3c-2cc2ccccc21	LOX IMVI melanoma	18.9
Brc1ccc2[nH]cc(-c3nn4cc(-c5nccs5)nc4s3)c2c1	LOX IMVI melanoma	8.86
C#CCN(C)CCCOc1ccc(NCc2ccc(/C=C/C(=O)NO)cc2)cc1Cl	LOX IMVI melanoma	-69.5

Sample `CCCCCCN1C=C/C(=C\C(=O)n2ccc3ccccc32)c2ccccc21` ; growth observed: 18.7

Sample `Nc1ccc(Nc2ncnc3sc4c(c23)CCN(Cc2ccccc2)C4)cc1` ; growth observed: 101

Sample `Cc1ccc(S(=O)(=O)NCCCNc2nccc(-c3[nH]c(-c4ccccc4)nc3-c3ccc(F)c(O)c3)n2)cc1` ; growth observed: 73.8

Sample `O=C(CN1CCN(c2cc(=O)[nH]c3ccc(F)cc23)CC1)N(c1ccccc1)c1ccccc1` ; growth observed: 101

Sample `CC[C@H](CC[C@@H](C)[C@H]1CC[C@H]2[C@@H]3CC(=O)C4=CC(=O)/C(=C/c5ccc([N+](=O)[O-])cc5)C[C@]4(C)[C@H]3CC[C@]12C)C(C)C` ; growth observed: 107

All values here come from PubChem BioAssay (NCI).
